system: NCI-H460 lung; assay: NCI-60 one-dose screen, 48 h; settings: 10 µM unless noted
Compounds without any hit were thinned out: in the full panel of roughly 83,000, 20% have a hit. Active and inactive are the calls of the source. The calls were made as follows: active = growth percent below 10; inactive = the rest.
Mark one answer only. Choices: T for active, F for inactive

I'd appreciate the recorded outcome for COc1ccc2c(c1)oc1c3[nH]c4ccccc4c3c3c(c21)C(=O)N(O)C3=O from this test.
T

I'd appreciate the recorded outcome for O=C1/C(=C/c2ccc([N+](=O)[O-])cc2)SC(=Nc2ccccc2)N1Nc1ccccc1 from this test.
F

I'd appreciate the recorded outcome for COCCC[C@H]1O[C@@](O)([C@H](C)[C@@H]2CC(OC)C(O)/C=C(C)/C=C(C)/C=C(\C)C(OC3O[C@@H](C)[C@H](O)C(O)[C@@H]3O)C(C)/C=C(C)/C=C(OC)/C=C(\C)C(=O)O2)C(OC)C(O)[C@]1(C)O[C@H]1C[C@@H](O)[C@H](O[C@H]2C[C@](C)(O)[C@H](O)C(C)O2)C(C)O1 (some centres undefined) from this test.
F

I'd appreciate the recorded outcome for COc1cc2oc(-c3cccc(NC(=O)c4cc(NC(=O)[C@H](C)N)ccc4Cl)c3)cc(=O)c2c(OC)c1OC from this test.
F

I'd appreciate the recorded outcome for Cc1ccc(-c2csc(N/N=C/c3nc4ccccc4n3C3CC3)n2)cc1 from this test.
F

I'd appreciate the recorded outcome for CCOC(=O)c1c(Nc2ccccc2)nn2c(-c3ccc(Br)cc3)ccnc12 from this test.
F

I'd appreciate the recorded outcome for Cn1ccnc1C(=O)/C=C/c1ccc(C(=O)Nc2ccc(NC(=O)CCNC(=O)c3csc(Br)n3)cc2)cc1 from this test.
F

I'd appreciate the recorded outcome for COc1cc2cc(Oc3ccc(NC(=O)Nc4cc(C(F)(F)F)cc(C(F)(F)F)c4)cc3)c(C)nc2cc1OCCN(C)C from this test.
F

I'd appreciate the recorded outcome for CCN1C(=O)N(CC)C2SC(N/N=C/c3ccccc3F)=NC21 (centres undefined) from this test.
T

###

Test system: DU-145 prostate
Assay: NCI-60 one-dose screen, 48 h (100 = growth as untreated, 0 = no growth, -100 = all killed)
Conditions: 10 µM unless noted
Protocol: Cells are grown in 96 well plates and exposed to the test compound for 48 hours. Compounds are tested at a single concentration, which is 10^-5 M for most compounds. The reported endpoint is percent growth (GI% or GIPRCNT), where numbers from 0 - 100% represent growth inhibition, and numbers from -100% - 0 represent cell death. For example, a value of 40 represents 60% growth inhibition. A value of 0 means no net growth occurred over the course of the experiment. […]
The panel holds about 83,000 compounds, 20% with a hit somewhere; the sample as a whole holds those more often. Calls of active or inactive are those of the source. The calls were made as follows: active = growth percent below 10; inactive = the rest.
Provide the recorded growth for the entries that follow.

Please give the documented growth of CCN(CC)CCN1C(=O)c2c(c3c4cc(Br)ccc4[nH]c3c3ccc4ccccc4c23)C1=O
-94.1% (active)

Please give the documented growth of CN1CCN(c2ccc(C(=O)/C=C/c3ccc(Cl)c(C(F)(F)F)c3)cc2)CC1
77.9% (inactive)

Please give the documented growth of N#Cc1c(NC(=O)c2ccccc2C(F)(F)F)sc2c1CCC(=O)C2
33.8% (inactive)

Please give the documented growth of CN1CCN(Cc2ccc(NC(=O)c3cncc(C#Cc4[nH]nc5ncncc45)c3)cc2C(F)(F)F)CC1
56.6% (inactive)

###

Provide the recorded growth for the entries that follow.
system: SK-MEL-2 melanoma; assay: NCI-60 one-dose screen, 48 h (100 = growth as untreated, 0 = no growth, -100 = all killed); settings: 10 µM unless noted
The panel holds about 83,000 compounds, 20% with a hit somewhere; the sample as a whole holds those more often.
Respond numerically; units are % and should not be typed.

Please give the documented growth of COc1cc(/C=N/Nc2ccnc3cc(Cl)ccc23)cc(OC)c1O
119

Please give the documented growth of COc1ccc(N2CCN(C(=O)CSc3ccc(-c4nc5cc(C)c(C)cc5[nH]4)cn3)CC2)cc1
87.1

Please give the documented growth of CN(c1ccc(Cl)cc1)S(=O)(=O)c1ccc(-c2cnc(C3CC3)o2)cc1
63.7

Please give the documented growth of C/C=C/C=C1\C[C@H]2CO[C@H](O2)C1=O
100

Please give the documented growth of O=C(Nc1ccc(Cl)cc1)Nc1nc2ccc([N+](=O)[O-])cc2s1
-40.8

Please give the documented growth of CC1OC(O[C@@H]2C(O)C(CO)OC(O[C@H]3COC(O[C@H]4CC[C@]5(C)[C@H]6CC[C@]78OC[C@@]9(CC[C@](C)(C=O)C[C@H]97)[C@H](O)C[C@@]8(C)[C@]6(C)CC[C@H]5C4(C)C)[C@@H](OC4OC(CO)[C@@H](O)[C@@H](O)[C@@H]4O)[C@@H]3O)[C@H]2OC2OC[C@@H](O)[C@@H](O)[C@@H]2O)[C@@H](O)[C@@H](O)[C@H]1O (stereo partly specified)
-35.2

Please give the documented growth of CC(C)=CCc1c(O)c(CC=C(C)C)c2c(c1O)C(=O)C1=C[C@@H]3C[C@H]4C(C)(C)O[C@@](C/C=C(\C)C(=O)O)(C3=O)[C@@]14O2
-53

Please give the documented growth of N/C(=N\OC(=O)CSc1nc2ccccc2s1)c1ccc2ccccc2c1
102

Please give the documented growth of COc1cc2cc(Oc3ccc(NC(=O)c4cccc(C(F)(F)F)c4)cc3)c(C)nc2cc1OCCN(C)C
108

Please give the documented growth of IP(CCCSc1n(Cc2ccc3ccccc3c2)c(-c2ccccc2)c(-c2ccccc2)[n+]1Cc1ccc2ccccc2c1)(c1ccccc1)(c1ccccc1)c1ccccc1
2.52

Please give the documented growth of N/C(=N\c1nc2ccc([N+](=O)[O-])cc2s1)C(Cl)(Cl)Cl
120

Please give the documented growth of N#Cc1c(-c2cccs2)cc(-c2cnccn2)nc1SCC(=O)NNC(=S)Nc1ccc(F)cc1
123

Please give the documented growth of COc1ccc2oc3c4[nH]c5ccccc5c4c4c(c3c2c1)C(=O)N(O)C4=O
107

Please give the documented growth of Cc1cc(C(=O)Nc2ccc(SC#N)cc2)c(C)o1
110

Please give the documented growth of O=c1c2c(O)cccc2oc2c3c(cc(O)c12)O[C@H]1OC=C[C@@H]31
95.5

Please give the documented growth of O=C(O)CNS(=O)(=O)c1ccc(Oc2ccc(S(=O)(=O)NCC(=O)O)cc2)cc1
104

###

Test system: NCI-H522 lung
Assay: NCI-60 one-dose screen, 48 h
Conditions: 10 µM unless noted
Method: Growth inhibition of the NCI-H522 human Non-Small Cell Lung tumor cell line is measured as a screen for anti-cancer activity. Cells are grown in 96 well plates and exposed to the test compound for 48 hours. Compounds are tested at a single concentration, which is 10^-5 M for most compounds. The reported endpoint is percent growth (GI% or GIPRCNT), where numbers from 0 - 100% represent growth inhibition, and numbers from -100% - 0 represent cell death. […]
Compounds without any hit were thinned out: in the full panel of roughly 83,000, 20% have a hit. Calls of active or inactive are those of the source. How the source made its calls: active means growth percent below 10; inactive means the rest.
Mark one answer only. Choices: label 1 (active), label 0 (inactive)

I'd appreciate the recorded outcome for O=C(CCCCCCN1CC(=O)N2[C@@H](c3ccccc3)c3[nH]c4ccccc4c3C[C@H]2C1=O)NO from this test.
label 0

I'd appreciate the recorded outcome for O=C1/C(=C/c2ccccc2[N+](=O)[O-])Oc2ccc(O)cc21 from this test.
label 1

I'd appreciate the recorded outcome for Cc1ccc(Nc2ncnc3c2c(C)nn3-c2ccc([N+](=O)[O-])cc2)cc1 from this test.
label 0

I'd appreciate the recorded outcome for CN(c1ccc(Br)cc1)S(=O)(=O)c1ccc(-c2cnc(C3CC3)o2)cc1 from this test.
label 0

I'd appreciate the recorded outcome for CN(C)c1ccc(/C=N/Nc2nc(N/N=C/c3ccc(N(C)C)cc3)nc(N3CCOCC3)n2)cc1 from this test.
label 0

I'd appreciate the recorded outcome for N#Cc1c(-c2cccs2)cc(-c2cnccn2)nc1SCC(=O)NNC(=S)Nc1ccc(F)cc1 from this test.
label 0

I'd appreciate the recorded outcome for CC(C)(C)OC(=O)N1CCN(S(=O)(=O)/N=C2\NC(=O)NC2=C(Cl)Cl)CC1 from this test.
label 1

I'd appreciate the recorded outcome for C=C1C(=O)O[C@@H]2C[C@@H](C)/C=C\C(=O)[C@](C)(OC(C)=O)C[C@H](OC(=O)/C(C)=C\C)[C@@H]12 from this test.
label 1

I'd appreciate the recorded outcome for COc1cc2oc(-c3cccc(NC(=O)c4cc(NC(=O)[C@H](C)NC(=O)OC(C)(C)C)ccc4C)c3)cc(=O)c2c(OC)c1OC from this test.
label 0

I'd appreciate the recorded outcome for Oc1ccccc1/C=N/Nc1nc(N/N=C/c2ccccc2O)nc(N2CCOCC2)n1 from this test.
label 0

I'd appreciate the recorded outcome for CCOC(=O)c1c(Nc2ccccc2)nn2c(-c3ccc(Br)cc3)ccnc12 from this test.
label 0

I'd appreciate the recorded outcome for C#CCOc1ccc(C(Nc2ccc(OC)cc2)c2nnnn2C2CCCCC2)cc1 (centres undefined) from this test.
label 0

I'd appreciate the recorded outcome for O=C(Nc1ccccc1)Nc1nc2ccc([N+](=O)[O-])cc2s1 from this test.
label 1

I'd appreciate the recorded outcome for COc1ccc([C@@H]2[C@@H](O)C(=O)N2c2cc(OC)c(OC)c(OC)c2)cc1Cl from this test.
label 1

The reported numbers originate from PubChem BioAssay (NCI).
